Source of measurements: PubChem BioAssay

For each record, write down the corresponding growth inhibition.
# procedure summary: inhibition of 3D7 malaria parasite growth – strain 3D7 (AID 2306);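 also: 0% = DMSO wells and 100% = chloroquine plus artemisinin control wells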
# measurement parameters: P. falciparum 3D7 erythrocytic growth, LDH absorbance, 72 h; at 2 µM; stronger effect = higher value
One number for each entry, in %.

Parameters: items (list). Returns: growth inhibition for each item.
1. COc1cc(Cc2cnc(N)nc2N)cc(OCCCCC#N)c1OC
2. CCC1=C(C[C@H]2NCCc3cc(OC)c(OC)cc32)C[C@H]2c3cc(OC)c(OC)cc3CCN2C1
3. CCNc1cc(C(=O)N[C@@H](Cc2ccccc2)[C@H](O)CNC(CC)c2cccc(Cl)c2)cc(N2CCCCS2(=O)=O)c1 (stereo not given in full)
4. Nc1nc(N)c2c(ccc3c2ncn3Cc2ccccc2)n1
5. Cc1ccc(S(=O)(=O)n2nccc2-c2c(-c3ccc(Cl)cc3)noc2C)cc1

stdout:
86
102
100
96
97
